TESTED_ON: Aedes aegypti CBE
ASSAY_TEXT: Inhibition of insect CBEs, 4-NPB substrate
APPLIED_CONDITIONS: n=3
MEASURED_QUANTITY: log10(Ki) (log10 of the value in µM)
Response schema: value (number) is log10 of Ki in units of µM.

Query block: Record lookup: for Aedes aegypti CBE, what log10(Ki) belongs to "Cc1ccc(B(O)O)cc1OCc1ccccc1" ?
Result block: 0.49

Query block: Queued: "OB(O)c1ccc(COc2ccc(Cl)c3ccccc23)cc1"
Result block: 1.00

Query block: One more molecule: "OB(O)c1cc(Br)cc(N2CCCC2)c1"
Result block: 1.00

Query block: Now the same for "OB(O)c1ccc(OCc2ccccc2F)c(Cl)c1"
Result block: 1.60

Query block: What do you have for "CC(C)Oc1cc(Br)cc(B(O)O)c1" ?
Result block: 0.41

Query block: Another molecule to look at: "OB(O)c1cc2ccc(OCc3ccccc3)cc2[nH]1"
Result block: -2.00

Query block: One more molecule: "O=C(Nc1ccccc1Cl)c1cc(B(O)O)ccc1Cl"
Result block: 1.57

###

TESTED_ON: Trypsin (Bos taurus, UniProt P00760)
Sequence (P00760 24-246): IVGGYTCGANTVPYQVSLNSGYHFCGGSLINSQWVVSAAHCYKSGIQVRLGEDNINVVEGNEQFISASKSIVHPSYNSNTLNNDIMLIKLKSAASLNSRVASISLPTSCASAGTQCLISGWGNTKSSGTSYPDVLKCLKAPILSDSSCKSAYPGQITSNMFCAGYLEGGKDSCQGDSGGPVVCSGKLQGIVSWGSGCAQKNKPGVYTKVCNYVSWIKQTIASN
pKi: −log10 of the molar value.
I'd be grateful if you could share measured pKi for these entries.

Query block: I'd like to know its pKi. The compound in question is Cc1ccc(B(O)O)cc1OCc1ccccc1 [Compound 2]
Result block: < 4.00

Query block: Do the same for OB(O)c1cc(Br)cc(N2CCCC2)c1 [Compound 3] please
Result block: < 4.00

Query block: Record: OB(O)c1ccc2ccccc2c1 [Compound 4]
Result block: < 5.00

Query block: Similarly, Cc1ccc(B(O)O)cc1Br [Compound 1] ?
Result block: < 4.00

Query block: Next entry: OB(O)c1ccc(OCc2ccccc2F)c(Cl)c1 [Compound 5]
Result block: < 4.00

###

System: HB-2 cells
ASSAY_TEXT: Cellular toxicity, Cell Titer Glo
Type: cell-based, human
APPLIED_CONDITIONS: 48 h, up to 100 μM
MEASURED_QUANTITY: toxicity to HB-2 cells (in words)

Cc1ccc(B(O)O)cc1OCc1ccccc1 [Compound 2] ... low toxicity
OB(O)c1ccc(OCc2ccccc2F)c(Cl)c1 [Compound 5] ... low toxicity

###

TESTED_ON: Culex quinquefasciatus CBE (Culex quinquefasciatus, UniProt Q23734)
Kindly state log10(Ki) for each of the entries shown.
Please note: log10 values; quantity Ki; unit nM.

Query block: Give the measured log10(Ki) of "CC(C)Oc1cc(Br)cc(B(O)O)c1" .
Result block: 2.95

Query block: Next up: "OB(O)c1cc2ccc(OCc3ccccc3)cc2[nH]1"
Result block: 2.28

Query block: "OB(O)c1ccc(OCc2ccccc2F)c(Cl)c1" ?
Result block: 2.62

Query block: Moving on to the next molecule: "Cc1ccc(B(O)O)cc1OCc1ccccc1"
Result block: 3.38

Query block: Follow-up entry: "O=C(Nc1ccccc1Cl)c1cc(B(O)O)ccc1Cl"
Result block: 3.56

Query block: Now this one: "OB(O)c1cc(Br)cc(N2CCCC2)c1"
Result block: 3.67

Query block: Please do the same for "OB(O)c1ccc(COc2ccc(Cl)c3ccccc23)cc1" as well.
Result block: 2.15

###

TESTED_ON: Gly137Asp LcαE7 (Gly137Asp variant of αE7 carboxylesterase) (Lucilia cuprina, UniProt Q25252, G137D)
Construct: GenBank number is of the wild-type parent
ASSAY_TEXT: Inhibition of Gly137Asp αE7 (competition assay, hydrolysis of 4-nitrophenol butyrate), dose-response curves of FIG. 8
Assignment: determine reported pIC50 for the given molecules.
Please express pIC50 as -log10 of the molar concentration.

Query block: Any idea what pIC50 was measured for "CC(C)(C)Oc1ccc(B(O)O)cc1Br" ?
Result block: 5.72

Query block: One more molecule: OB(O)c1ccccc1 [PBA, phenylboronic acid, reference compound]
Result block: 6.06

Query block: Next entry: "CC(C)Oc1cc(Br)cc(B(O)O)c1"
Result block: 6.82

Query block: Likewise for "OB(O)c1cc(Br)cc2c1OCC2" ?
Result block: 6.07

Query block: Next molecule: "OB(O)c1ccc2ccccc2c1"
Result block: 6.43

Query block: Proceed to "OB(O)c1cc(Br)cc(N2CCCCC2)c1"
Result block: 6.54

Query block: And then "OB(O)c1cc(Br)c2ccccc2c1F" , what is it?
Result block: 6.85

Query block: Item: "OB(O)c1cc(Br)cc(OC(F)(F)F)c1"
Result block: 6.68

Query block: Param item: "CN1CCN(c2cc(Br)cc(B(O)O)c2)CC1"
Result block: 5.70

Query block: Repeat for the following molecule: "OB(O)c1cc(Br)cc(N2CCCC2)c1"
Result block: 6.66

###

TESTED_ON: Gly137Asp LcαE7 (Lucilia cuprina, UniProt Q25252, G137D)
ASSAY_TEXT: Enzyme inhibition assay with 4-nitrophenol butyrate, Gly137Asp variant
Assay type: biochemical
APPLIED_CONDITIONS: Cheng-Prusoff from dose-response; 4-nitrophenol butyrate; read-out: Ki Gly137Asp LcαE7
MEASURED_QUANTITY: Ki (nM)
Answer in nM, number only, no unit symbol.

Query block: # lookup: Ki of "OB(O)c1cc(Br)cc(N2CCOCC2)c1"
Result block: 430

###

TESTED_ON: Gly137Asp LcαE7 (Lucilia cuprina, UniProt Q25252, G137D)
ASSAY_TEXT: Enzyme inhibition assay with 4-nitrophenol butyrate, Gly137Asp variant
Assay type: biochemical
satisfied if Ki is below 100 nM. not satisfied if not; exact matches included in not satisfied.

Query block: hey, is Ki for "OB(O)c1cc(Cl)cc(N2CCCC2)c1" lower than 100 nM or not?
Result block: not satisfied

Query block: Let us now turn to "OB(O)c1cc(Br)cc(Oc2ccccc2)c1"
Result block: satisfied

Query block: Let us now turn to "CC(C)(C)Oc1ccc(B(O)O)cc1Br"
Result block: not satisfied

Query block: Now this one: "OB(O)c1cc(Br)cc2c1OCC2"
Result block: not satisfied

Query block: What would you report for "OB(O)c1cc(Br)cc(N2CCCC2)c1" ?
Result block: not satisfied

Query block: Now this one: "OB(O)c1cc(Br)cc(OC(F)(F)F)c1"
Result block: not satisfied

Query block: Another compound to look at: "OB(O)c1cc(Br)cc(OCc2ccccc2)c1"
Result block: satisfied

###

TESTED_ON: Gly137Asp LcαE7 (Lucilia cuprina, UniProt Q25252, G137D)
ASSAY_TEXT: Enzyme inhibition assay with 4-nitrophenol butyrate, Gly137Asp variant
Format: biochemical
Hi there, I'd appreciate the recorded Ki for every entry that follows.

Query block: For the record OB(O)c1ccccc1 [PBA, phenylboronic acid, reference compound] , what value of Ki is listed for Gly137Asp LcαE7 (Lucilia cuprina, UniProt Q25252, G137D)?
Result block: 450 nM

Query block: Item: CN1CCN(c2cc(Br)cc(B(O)O)c2)CC1 [Compound 3.4]
Result block: 1000 nM

Query block: Try the compound OB(O)c1ccc2ccccc2c1 [Compound 4]
Result block: 190 nM

Query block: Let us now turn to O=C(c1cc(Cl)cc(B(O)O)c1)N1CCOCC1 [Compound 3.11]
Result block: 1000 nM

Query block: Follow-up entry: Cc1ccc(B(O)O)cc1Br [Compound 1]
Result block: 49 nM

Query block: Thanks! And OB(O)c1ccc(OCc2ccccc2F)c(Cl)c1 [Compound 5] ?
Result block: 170 nM

Query block: Moving on to the next compound: OB(O)c1cc(Br)cc(N2CCCCC2)c1 [Compound 3.3]
Result block: 150 nM

Query block: Note, next up: OB(O)c1cc(Br)c2ccccc2c1F [Compound 3.6]
Result block: 71 nM

Query block: Ok, now Cc1ccc(B(O)O)cc1OCc1ccccc1 [Compound 2]
Result block: 29 nM

Query block: Again, but for CC(C)Oc1cc(Br)cc(B(O)O)c1 [Compound 3.7, 3-Bromo-5-isopropoxyphenylboronic acid]
Result block: 76 nM

###

TESTED_ON: UniProtKB Q25252
ASSAY_TEXT: Inhibition of wildtype αE7 (competition assay, hydrolysis of 4-nitrophenol butyrate), dose-response curves of FIG. 7
Type: biochemical
APPLIED_CONDITIONS: 95% confidence interval in brackets; recombinant His6-tagged enzyme from E. coli, 0.5 nM; 4-nitrophenol butyrate 15 μM (= KM); room temperature, pH 7.5, 405 nm; three technical replicates
hey, just use criterion met if measured IC50 is less than 2 nM, otherwise criterion not met

Query block: Is the reported IC50 for O=C(c1cc(Cl)cc(B(O)O)c1)N1CCOCC1 [Compound 3.11] strictly below 2 nM?
Result block: criterion not met

Query block: Same question for CC(C)Oc1cc(Br)cc(B(O)O)c1 [Compound 3.7, 3-Bromo-5-isopropoxyphenylboronic acid] please.
Result block: criterion met

Query block: Now give it for Cc1ccc(B(O)O)cc1OCc1ccccc1 [Compound 2] too.
Result block: criterion not met

Query block: Moving on to Cc1ccc(B(O)O)cc1Br [Compound 1]
Result block: criterion not met

Query block: Same question, OB(O)c1ccccc1 [PBA, phenylboronic acid, reference compound] this time
Result block: criterion not met

Query block: Also OB(O)c1cc(Br)cc(Oc2ccccc2)c1 [Compound 3.10, 3-Bromo-5-phenoxyfenylboronic acid] ?
Result block: criterion met

Query block: // next record OB(O)c1cc(Br)cc(N2CCOCC2)c1 [Compound 3.1]
Result block: criterion met

Query block: Moving on to the next compound: OB(O)c1cc(Br)cc(N2CCCCC2)c1 [Compound 3.3]
Result block: criterion met

Query block: Item: OB(O)c1cc(Br)cc(N2CCCC2)c1 [Compound 3]
Result block: criterion met

Query block: // same read-out, input: CN1CCN(c2cc(Br)cc(B(O)O)c2)CC1 [Compound 3.4]
Result block: criterion not met
